Source listed as paper PMC10339762.

- tested.system: CCL28(1-108) (Homo sapiens, UniProt Q9NRJ3)
- Construct: Uniformly ^15N-labeled CCL28(1-108) and CCL28(4-108) proteins were expressed using a previously described SUMO fusion construct; Smt (SUMO) fusion tag (N, cleaved yes)
- Sequence (Q9NRJ3 20-127): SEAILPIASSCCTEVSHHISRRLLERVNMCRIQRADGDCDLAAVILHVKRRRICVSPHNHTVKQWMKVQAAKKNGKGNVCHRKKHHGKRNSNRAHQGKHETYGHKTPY
- experiment.notes: 1H-15N HSQC NMR titration of repurchased fragment hits (hit validation)
- recorded.conditions: 50 μM CCL28(1-108), fragment 0–6 mM, HSQC at 25 °C; estimated by nonlinear fitting; read-out: Kd (fitting of titration-derived chemical shift perturbation data)
pKd: −log10 of the molar value.
Record form. Attribute: pKd. Fill in for each entry.

Recorded result, O=C(O)c1cc2cc(C(F)(F)F)ccc2[nH]1 [TA01.A04.02A03] , pKd: < 2.00

Recorded result, O=C(O)c1ccc(-c2ccccc2)s1 [CC10501] , pKd: 2.18

Recorded result, O=c1cc(O)c2ccccc2o1 [ZT0262] , pKd: < 2.00

Recorded result, Cc1csc(C(C#N)C(=O)c2ccccc2F)n1 (stereo not shown) [E2C02.03 C11.09C10] , pKd: < 2.00

Recorded result, O=C(O)c1cc2cc(F)ccc2[nH]1 [ZT0073] , pKd: < 2.00

Recorded result, O=C(O)c1cc2ccccc2[nH]1 [ZT1669] , pKd: < 2.00

Recorded result, OCCCCn1cnc2cc(Cl)c(Cl)cc21 [SPB07625] , pKd: 3.07

Recorded result, Cc1cccc(C(=O)O)c1O [ZT0733] , pKd: < 2.00

Recorded result, O=C(O)c1ccc(-c2cccs2)s1 [CC146001] , pKd: 2.49

Recorded result, Sc1nc2cc(Cl)ccc2o1 [ZT0010] , pKd: 2.92

Recorded result, O=C(O)c1ccc2c3c(cccc13)CC2 [ZT0784] , pKd: 2.64

Recorded result, O=C(O)/C=C/c1ccccc1 [ZT0754] , pKd: < 2.00

Recorded result, Cc1cc(Cl)ccc1S(=O)(=O)Nc1ccon1 [E2C04.04 C11.12C09] , pKd: < 2.00
